system: Nilaparvata lugens; assay: Insecticidal activity against Nilaparvata lugens (brown planthopper) assessed as mortality after 72 hr; type: functional
MEASURED_METRIC: LC50 (µg/mL)
Answers are plain numbers, in µg/mL.

# SMILES_INPUT, LC50 (µg/mL)
records = [
    ("CCN(Cc1ccc(Cl)nc1)C1=C([N+](=O)[O-])CN(CCC(=O)OC(C)C)CN1C", 0.162),
    ("CCCOC(=O)CCN1CC([N+](=O)[O-])=C(N(CC)Cc2ccc(Cl)nc2)N(C)C1", 0.194),
    ("O=[N+]([O-])/N=C1\\NCCN1Cc1ccc(Cl)nc1", 0.108),
]

Then this compound:
Kindly note the recorded LC50 for CCN(Cc1ccc(Cl)nc1)/C(=C/[N+](=O)[O-])NC , which is 0.129
